- Target System: recombinant human MT1 receptor (Homo sapiens)
- Construct: expressed in transfected cells; host or cells: unnamed cell line co-expressing mitochondrial apoaequorin and the Galpha16 subunit
- Sequence (P48039 whole entry): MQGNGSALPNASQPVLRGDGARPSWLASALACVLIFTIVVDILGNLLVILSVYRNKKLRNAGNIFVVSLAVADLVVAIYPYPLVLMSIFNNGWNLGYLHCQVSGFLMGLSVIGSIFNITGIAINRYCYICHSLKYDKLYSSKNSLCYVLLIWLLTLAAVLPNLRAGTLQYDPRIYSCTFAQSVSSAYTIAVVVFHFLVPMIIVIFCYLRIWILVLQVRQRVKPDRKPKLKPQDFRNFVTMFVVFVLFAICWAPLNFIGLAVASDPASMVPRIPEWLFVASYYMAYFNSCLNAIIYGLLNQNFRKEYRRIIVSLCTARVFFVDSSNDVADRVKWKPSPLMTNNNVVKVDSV
- Assay Summary: Agonist activity on MT1 receptors (aequorin luminescence, Gα16 co-expressing cell line)
- Type: cell-based
- Experimental Parameters: compound at 1 nm; percentage activity with respect to the reference agonist at its EC100
Measurement Label: MT1 agonism, 1 nm (%)

COc1ccc2c(c1)N(CCNC(=O)C(F)(F)F)CC2; 14.6
CC(=O)NCCN1CCc2ccc3c(c21)CCO3 [reference compound]; 13.9
COc1ccc2c(c1)N(CCNC(C)=O)CC2; 13.1
COc1ccc2c(c1)N(C(C)CNC(C)=O)CC2 (stereo not shown); 11.5
